- Test system: SK-MEL-2 melanoma
- EXPERIMENTAL_DETAILS: NCI-60 one-dose screen, 48 h (100 = growth as untreated, 0 = no growth, -100 = all killed)
- CONDITION_CONTEXT: 10 µM unless noted
Compounds without any hit were thinned out: in the full panel of roughly 83,000, 20% have a hit.

| COMPOUND | OUTPUT_UNIT | growth |
| --- | --- | --- |
| COc1cc(-c2nc(-c3ccccc3)[nH]c2-c2ccnc(NCCCNS(=O)(=O)c3cccc(F)c3)n2)ccc1F | % | 105 |
| CC1(C)CC[C@]2(C(=O)O)CC[C@]3(C)C(=CC[C@@H]4[C@@]5(C)CC[C@H](NOCCCN)C(C)(C)[C@@H]5CC[C@]43C)[C@@H]2C1 | % | 93.3 |
| CC1(C)CC[C@]23CC[C@]4(C)[C@H](CC[C@@H]5[C@@]6(C)CC[C@H](N)C(C)(C)[C@@H]6CC[C@]54C)[C@H]2[C@H]1OC3 | % | 108 |
| CCOP(=O)(OCC)OC[C@]12CCC(C)(C)CC1C1=CC[C@@H]3[C@@]4(C)CCCNC(C)(C)[C@@H]4CC[C@@]3(C)[C@]1(C)CC2 (stereo not given in full) | % | 121 |
| Cn1ncc2c(C(=O)c3ccc(F)cc3)nc(C(C)(C)C)nc21 | % | 103 |
| CS(=O)(=O)c1ccc(/C(=N/N=C(N)N)c2ccc(F)cc2)cc1 | % | 97.2 |
| O=C(O)CC1CCN(c2ccc3nnc(Cl)n3n2)CC1 | % | 106 |
| CC1(C)C=Cc2cc(/C(N)=N/C(N)=N/c3nc4ccccc4s3)ccc2O1 | % | 110 |
| O=C1[C@H]2Cc3c([nH]c4ccccc34)[C@H](c3ccc(Br)cc3)N2C(=O)CN1C1CCN(CC2CCCCC2)CC1 | % | 109 |
| O=C(/C=C/c1ccc(Cl)c(Cl)c1)Nc1ncc(Cc2ccc(Cl)c(Cl)c2)s1 | % | 79.2 |
| COc1cccc(N2CCN(C3=C(Cl)C(=O)c4ncccc4C3=O)CC2)c1 | % | 98.4 |
| Cc1ccc(C)c(NC2=C(Cl)C(=O)c3nc(C)ccc3C2=O)c1 | % | -36.2 |
| COc1cccc2c1[C@H](OC)[C@]13O[C@@]1(C2=O)[C@H](O)[C@H](C)[C@@](O)(C(=O)[C@@H]1O[C@H]1C)[C@@H]3O | % | -55.7 |
| Cc1ccc2c(n1)C(=O)C(Cl)=C(Nc1ccc(C(F)(F)F)cc1)C2=O | % | 103 |
| COc1cc2oc(-c3cccc(NC(=O)c4cccc([N+](=O)[O-])c4)c3)cc(=O)c2c(OC)c1OC | % | 91.5 |
| CCc1nnc(NC(=O)c2cc(-c3ccc(Cl)cc3Cl)oc2C)s1 | % | 108 |
| CCCCCCCCCCCC(=O)NC(C)(C)C(=O)N1CCCC1C(=O)NC(C)(C)C(=O)NC(C)(C)C(=O)N1CCCC1C(=O)NC(C)(C)C(=O)NC(C)(C)C(=O)N1CCCC1C(=O)NC(C)C(=O)NCCC(=O)NC(C)C(=O)NC(C)(C)C(=O)NC(C)(C)C(=O)NC(C)(C)C(=O)NCCC(=O)NC(C)(C)C(=O)NC(C)(C)C(=O)NC(C)(C)C(=O)NC(C)C(=O)NCCC(=O)O (stereo not given) | % | -96.2 |
| Cn1cc(-c2nn3cc(-c4ccncc4)nc3s2)c2cc(Br)ccc21 | % | 75.2 |
| CCNCCOc1ccc(/C(=C(/CC)c2ccc(Cl)cc2)c2ccc(OCCCN(C)C)cc2)cc1 | % | -84 |
| CCCCCCN1C=C/C(=C\C(=O)n2ccc3ccccc32)c2ccccc21 | % | 76 |
| CC1=C(SCC(=O)OCCCCCC(C)C)C(=O)c2ccccc2C1=O | % | 99.1 |
| O=C(CCl)Nc1ccc(NC(=O)c2cc(Cl)ccc2O)c(Cl)c1 | % | 92 |
| Cc1ccc(C(=O)Nc2ccc(CNCCN3CCNCC3)c(C(F)(F)F)c2)cc1C#Cc1cnc2cccnn12 | % | 64 |
| COc1ccc(CC(C)=C(c2ccc(OCCN3CCCC3)cc2)c2ccc(OCCN3CCCC3)cc2)cc1 | % | -91.8 |
| Cc1ccc(OCc2occc2C(=O)N2CCOCC2)cc1 | % | 107 |
| CC(Nc1c(C#N)cnc2ccc(-c3cncc(-c4n[nH]c(=O)o4)c3)cc12)c1ccccc1 (stereo not given) | % | -34 |
| COC(=O)c1ccc(NC2=C(Cl)C(=O)c3nc(C)ccc3C2=O)cc1 | % | 88.3 |
| Cc1ccc(-c2csc(N/N=C/c3cccs3)n2)cc1 | % | 111 |
| COc1ccc2c(c1)c(-c1nn3cc(-c4ccncc4)nc3s1)cn2C | % | 104 |
| Cn1c(SCC(=O)c2ccc(Br)cc2)nc2ccccc2c1=O | % | 102 |
| NS(=O)(=O)c1nnc(/N=C/c2c(O)[nH]c3ccccc23)s1 | % | 114 |
| COc1ccccc1/C=C/C(=O)c1nnn(-c2ccc(F)cc2)c1C | % | 93.2 |
| C=C(C=O)[C@@H]1CC[C@]2(C(=O)O)CC[C@]3(C)C(CC[C@@H]4[C@@](C)(CCC#N)[C@H](C(=C)C=O)CC[C@]43C)[C@@H]12 (stereo not given in full) | % | 61.1 |
| Fc1ccc(-c2cn3c(-c4c[nH]c5ccc(Br)cc45)csc3n2)cc1 | % | 90.5 |
| CC(=O)Nc1ccccc1-c1nc2ccccc2s1 | % | 104 |
